Where do the numbers come from? From patent US6040335A.

Tested on: Mouse Platelet
Assay: Mouse Platelet Increasing Action (platelet count, electrical impedance method)
Format: in vivo, C57BL/6 mice
Conditions: 0.03 mg/kg i.p., every 24 hr, 5 days; blood 72 hr after final administration
REPORTED_ENDPOINT: Platelet count (Mean ± S.E.)

Worked examples, 4 compounds total:
> print(dat)
                                   compound                 result
1  CCC1C=CC(=O)OC1/C=C/C(O)(CCN(CCO)CCO)C(CC(O)/C=C\C=C/C1CCCC(O)C1)OP(=O)(O)O (stereo not drawn)  1154 ± 138 × 10^3 /μl
2  CCCCCNCCC(O)(/C=C/C1OC(=O)C=CC1CC)C(CC(O)/C=C\C=C/C1CCCC(O)C1)OP(=O)(O)O (stereo not drawn)   1263 ± 99 × 10^3 /μl
3  CCC1C=CC(=O)OC1/C=C/C(O)(CCNC(C)C)C(CC(O)/C=C\C=C/C1CCCC(O)C1)OP(=O)(O)O (stereo not drawn)  1433 ± 125 × 10^3 /μl
4  CCC1C=CC(=O)OC1/C=C/C(O)(CCNC1CCCC1)C(CC(O)/C=C\C=C/C1CCCC(O)C1)OP(=O)(O)O (stereo not drawn)  1490 ± 108 × 10^3 /μl

**Q:** Fill in reported Platelet count (Mean ± S.E.) for this entry: C=CCN(CC=C)CCC(O)(/C=C/C1OC(=O)C=CC1CC)C(CC(O)/C=C\C=C/C1CCCC(O)C1)OP(=O)(O)O (stereo not drawn)
**A:** 1074 ± 182 × 10^3 /μl

**Q:** Fill in reported Platelet count (Mean ± S.E.) for this entry: CCC1C=CC(=O)OC1/C=C/C(O)(CCN(CC)CC)C(CC(O)/C=C\C=C/C1CCCC(O)C1)OP(=O)(O)O (stereo not drawn)
**A:** 1373 ± 76 × 10^3 /μl

###

Tested on: Mouse Platelet
Experiment: Mouse Platelet Increasing Action (platelet count, electrical impedance method)
Assay type: in vivo, C57BL/6 mice
Conditions: 1.0 mg/kg i.p., every 24 hr, 5 days; blood 72 hr after final administration
REPORTED_ENDPOINT: Platelet count (Mean ± S.E.)

> print(dat)
                                   compound     test.target                 result
1  C=CCN(CC=C)CCC(O)(/C=C/C1OC(=O)C=CC1CC)C(CC(O)/C=C\C=C/C1CCCC(O)C1)OP(=O)(O)O (stereo not shown)  Mouse Platelet  1133 ± 170 × 10^3 /μl
2  CCC1C=CC(=O)OC1/C=C/C(O)(CCNC1CCCC1)C(CC(O)/C=C\C=C/C1CCCC(O)C1)OP(=O)(O)O (stereo not shown)  Mouse Platelet  1313 ± 293 × 10^3 /μl
3  CCC1C=CC(=O)OC1/C=C/C(O)(CCN(CC)CC)C(CC(O)/C=C\C=C/C1CCCC(O)C1)OP(=O)(O)O (stereo not shown)  Mouse Platelet  1408 ± 427 × 10^3 /μl
4  CCCCCNCCC(O)(/C=C/C1OC(=O)C=CC1CC)C(CC(O)/C=C\C=C/C1CCCC(O)C1)OP(=O)(O)O (stereo not shown)  Mouse Platelet  1338 ± 236 × 10^3 /μl
5  CCC1C=CC(=O)OC1/C=C/C(O)(CC[N+](C)(C)C)C(CC(O)/C=C\C=C/C1CCCC(O)C1)OP(=O)(O)O (stereo not shown)  Mouse Platelet  1513 ± 425 × 10^3 /μl

**Q:** Fill in reported Platelet count (Mean ± S.E.) for this entry: CCC1C=CC(=O)OC1/C=C/C(O)(CCNC(C)C)C(CC(O)/C=C\C=C/C1CCCC(O)C1)OP(=O)(O)O (stereo not shown)
**A:** 1465 ± 244 × 10^3 /μl

**Q:** Fill in reported Platelet count (Mean ± S.E.) for this entry: CCC1C=CC(=O)OC1/C=C/C(O)(CCN(CCO)CCO)C(CC(O)/C=C\C=C/C1CCCC(O)C1)OP(=O)(O)O (stereo not shown)
**A:** 1498 ± 192 × 10^3 /μl
